// data source = PubChem BioAssay (EPA / NIEHS)

read-out: flavin-containing dimethylaniline monooxygenases 3 (FMO3), FMO3 (gene 2328); experiment: LTEA_HepaRG_FMO3: Life Technologies and Expression Analysis (LTEA) Assay for flavin-containing dimethylaniline monooxygenases 3 (FMO3) using HepaRG (AID 2283453); settings: mRNA level, 48 h; actives raise or lower the signal;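 as to AC50: differentiated human HepaRG liver cells in serum-free induction medium; FMO3 transcript by TaqMan qRT-PCR normalized to ACTB GAPDH and POLR2A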
The source made the active and inactive calls. The calls were made as follows: active = hit-call score of the fitted dose curve at least 0.9, where 1 is the maximum; inactive = score below 0.9.
MEASURED PARAMETER: AC50

>>> print(df.to_string())
                                    compound    recorded_result
 0          CCOP(=S)(OCC)Oc1nc(Cl)n(C(C)C)n1   24.7 µM (active)
 1              O=c1n(Cl)c(=O)n(Cl)c(=O)n1Cl           inactive
 2                CC(C)Nc1nc(Cl)nc(NC(C)C)n1           inactive
 3     COP(=S)(OC)Oc1ccc([N+](=O)[O-])c(C)c1           inactive
 4        Cn1c(-c2ccccc2)cc(-c2ccccc2)[n+]1C     50 µM (active)
 5                   CCOc1nc(C(Cl)(Cl)Cl)ns1  0.644 µM (active)
 6  CO/N=C(/C1=NOCCO1)c1ccccc1Oc1ncnc(Oc2ccccc2Cl)c1F   24.9 µM (active)
 7      COC(=O)NC(=S)Nc1ccccc1NC(=S)NC(=O)OC           inactive
 8              O=C(O)c1c(Cl)ccc2cc(Cl)cnc12           inactive
 9              CNC(=O)N(C)c1nnc(C(C)(C)C)s1           inactive
10  CCCC(=NOCC)C1=C(O)CC(CC(C)SCC)CC1=O (configuration not stated)           inactive
11             COP(=S)(OC)SCn1nnc2ccccc2c1=O           inactive
12  CS(=O)(=O)c1ccc(C(=O)C2C(=O)CCCC2=O)c([N+](=O)[O-])c1           inactive
13     O=C(Nc1ccccc1-c1ccc(Cl)cc1)c1cccnc1Cl           inactive
14  CC(C)(C)C(=O)C(Oc1ccc(Cl)cc1)n1cncn1 (configuration not stated)           inactive
15  CC(C)NC(=O)N1CC(=O)N(c2cc(Cl)cc(Cl)c2)C1=O     17 µM (active)
16  CCNP(=S)(OC)O/C(C)=C/C(=O)OC(C)C (configuration not stated)           inactive
17  O=C1C2CC=CCC2C(=O)N1SC(Cl)(Cl)Cl (configuration not stated)           inactive
18  COc1cc(OC)nc(NC(=O)NS(=O)(=O)c2ncccc2OCC(F)(F)F)n1           inactive
19             CC(C)N1C(=O)c2ccccc2NS1(=O)=O           inactive
20  CCCCC(O)(Cn1cncn1)c1ccc(Cl)cc1Cl (configuration not stated)   75.9 µM (active)
21  CCCN(CC)CC1COC2(CCC(C(C)(C)C)CC2)O1 (configuration not stated)           inactive
22          CCOP(=O)(OCC)Oc1nc(Cl)c(Cl)cc1Cl   79.3 µM (active)
23  CC1(C)C(C(=O)OC(C#N)c2cccc(Oc3ccccc3)c2)C1(C)C (configuration not stated)           inactive
24                      COc1cc(Cl)c(OC)cc1Cl           inactive
25                Nc1cnn(-c2ccccc2)c(=O)c1Cl           inactive
26         N#Cc1c[nH]cc1-c1cccc2c1OC(F)(F)O2   71.8 µM (active)
27              Nc1c(Cl)c(F)nc(OCC(=O)O)c1Cl           inactive
28        CN/C(=N\[N+](=O)[O-])NCc1cnc(Cl)s1           inactive
29        COc1ccc(-c2ccccc2)cc1NNC(=O)OC(C)C           inactive
30            Cc1nc(N(C)C)nc(OC(=O)N(C)C)c1C           inactive
31               Clc1nc(Cl)nc(Nc2ccccc2Cl)n1           inactive
